The measured values listed here are drawn from patent US20210231678A1.

Test system: IgE antibody present in the serum of a patient (latex-allergic)
Experiment: Latex epitope mapping (2) overlapping 10-residue peptides and (3) alanine/glycine scanning on peptide arrays
Assay type: binding, human
Conditions: serum of latex-allergic patient P4
Outcome measure: epitope sequence grade for binding to IgE antibody

Substance	Result
100 (KFYDDK; epitope) [compound 100]	Key
41 (SYKSNSV; epitope) [compound 41]	More preferably
98 (WSKFYDDK; epitope) [compound 98]	More preferably
101 (DKNGYSSS; epitope) [compound 101]	More preferably

---

Test system: IgE antibody present in the serum of a patient (latex-allergic)
Test: Latex epitope mapping (2) overlapping 10-residue peptides and (3) alanine/glycine scanning on peptide arrays
Format: binding, human
Conditions: serum of latex-allergic patient P12
Outcome measure: epitope sequence grade for binding to IgE antibody

Substance	Test system	Result
114 (KFYDDK; epitope) [compound 114]	IgE antibody present in the serum of a patient (latex-allergic)	Key

---

System: IgE antibody present in the serum of a patient (latex-allergic)
Assay: Latex epitope mapping (2) overlapping 10-residue peptides and (3) alanine/glycine scanning on peptide arrays
Type: binding, human
Conditions: serum of latex-allergic patient P5
Outcome measure: epitope sequence grade for binding to IgE antibody

Substance	Result
75 (HKVGKGEI; epitope) [compound 75]	More preferably
106 (KFYDDK; epitope) [compound 106]	Key
105 (SKFYDDK; epitope) [compound 105]	Preferably
104 (WSKFYDDK; epitope) [compound 104]	More preferably
44 (SYKSNS; epitope) [compound 44]	Preferably
107 (YDDKNGYSSS; epitope) [compound 107]	Preferably
71 (VNVIHKVGKG; epitope) [compound 71]	More preferably

---

System: IgE antibody present in the serum of a patient (latex-allergic)
Experiment: Latex epitope mapping (2) overlapping 10-residue peptides and (3) alanine/glycine scanning on peptide arrays
Type: binding, human
Conditions: serum of latex-allergic patient P6
Outcome measure: epitope sequence grade for binding to IgE antibody

Substance	Result
28 (KPLNDRYS; epitope) [compound 28]	Key
27 (KPYDKP; epitope) [compound 27]	Key

---

System: IgE antibody present in the serum of a patient (latex-allergic)
Assay: Latex epitope mapping (2) overlapping 10-residue peptides and (3) alanine/glycine scanning on peptide arrays
Format: binding, human
Details: serum of latex-allergic patient P12
Outcome measure: epitope sequence grade for binding to IgE antibody

Substance	Result
17 (EDNFVIQKPY; epitope) [compound 17]	More preferably
63 (VATDIY; epitope) [compound 63]	More preferably

---

Tested on: IgE antibody present in the serum of a patient (latex-allergic)
Assay: Latex epitope mapping (2) overlapping 10-residue peptides and (3) alanine/glycine scanning on peptide arrays
Format: binding, human
Conditions: serum of latex-allergic patient P2
Outcome measure: epitope sequence grade for binding to IgE antibody

Substance	Test system	Result
7 (DNFVIQKPYD; epitope) [compound 7]	IgE antibody present in the serum of a patient (latex-allergic)	Preferably
93 (KFYDDK; epitope) [compound 93]	IgE antibody present in the serum of a patient (latex-allergic)	Preferably
92 (KFYDDKNGYS; epitope) [compound 92]	IgE antibody present in the serum of a patient (latex-allergic)	More preferably
95 (DDKNGYSSS; epitope) [compound 95]	IgE antibody present in the serum of a patient (latex-allergic)	More preferably

---

Tested on: IgE antibody present in the serum of a patient (latex-allergic)
Experiment: Latex epitope mapping (2) overlapping 10-residue peptides and (3) alanine/glycine scanning on peptide arrays
Assay type: binding, human
Conditions: serum of latex-allergic patient P1
Outcome measure: epitope sequence grade for binding to IgE antibody

Substance	Result
84 (SKFYDDKNG; epitope) [compound 84]	More preferably
88 (DDKNGYSSS; epitope) [compound 88]	More preferably
85 (SKFYDDKN; epitope) [compound 85]	Preferably
69 (HKVGKGEI; epitope) [compound 69]	Preferably
70 (HKVGKG; epitope) [compound 70]	Key

---

Tested on: IgE antibody present in the serum of a patient (latex-allergic)
Test: Latex epitope mapping (2) overlapping 10-residue peptides and (3) alanine/glycine scanning on peptide arrays
Type: binding, human
Details: serum of latex-allergic patient P17
Outcome measure: epitope sequence grade for binding to IgE antibody

Substance	Test system	Result
119 (DKNGYSSS; epitope) [compound 119]	IgE antibody present in the serum of a patient (latex-allergic)	Key
34 (DKPLNDRYS; epitope) [compound 34]	IgE antibody present in the serum of a patient (latex-allergic)	Key
115 (WSKFYDDKN; epitope) [compound 115]	IgE antibody present in the serum of a patient (latex-allergic)	More preferably
33 (KPYDKPLNDR; epitope) [compound 33]	IgE antibody present in the serum of a patient (latex-allergic)	Preferably
118 (YDDKNGYSSS; epitope) [compound 118]	IgE antibody present in the serum of a patient (latex-allergic)	Preferably
22 (QKPYDKPLN; epitope) [compound 22]	IgE antibody present in the serum of a patient (latex-allergic)	More preferably
80 (KVGKGEITVF; epitope) [compound 80]	IgE antibody present in the serum of a patient (latex-allergic)	More preferably
116 (WSKFYD; epitope) [compound 116]	IgE antibody present in the serum of a patient (latex-allergic)	Preferably

---

Test system: IgE antibody present in the serum of a patient (latex-allergic)
Assay: Latex epitope mapping (2) overlapping 10-residue peptides and (3) alanine/glycine scanning on peptide arrays
Format: binding, human
Conditions: serum of latex-allergic patient P8
Outcome measure: epitope sequence grade for binding to IgE antibody

Substance	Result
46 (LKSYKSNSVA; epitope) [compound 46]	Preferably
14 (QKPYDK; epitope) [compound 14]	Preferably
47 (LKSYKSNSV; epitope) [compound 47]	Key
